Molecular target: Yap3 (UniProt P38749)
Sequence: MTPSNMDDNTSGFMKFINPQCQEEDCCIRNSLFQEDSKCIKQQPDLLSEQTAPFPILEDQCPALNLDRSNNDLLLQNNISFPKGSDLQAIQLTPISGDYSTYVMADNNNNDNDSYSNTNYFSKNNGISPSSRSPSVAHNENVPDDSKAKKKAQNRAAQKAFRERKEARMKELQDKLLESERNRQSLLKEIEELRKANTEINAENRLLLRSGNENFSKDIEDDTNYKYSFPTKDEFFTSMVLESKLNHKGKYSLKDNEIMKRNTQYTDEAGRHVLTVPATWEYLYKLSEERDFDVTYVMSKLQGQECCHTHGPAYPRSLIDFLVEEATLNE
Test: PBM E-score (8-mer binding enrichment) (E-score (-0.5 to 0.5)); higher = stronger / more preferred TF binding
Settings: protein concentration: 100 nM; construct: GST-full length
Whole data set: some 33,000 sequences, median “E-score (-0.5 to 0.5)” near -0.0034, cut for the highest 2% near 0.25. The sample holds the highest values, similar sequences and a random draw of the others, so the mix is not that of the screen.
Response key: class 1 means PBM E-score >= 0.1; class 0 means PBM E-score < 0.1.

Evaluate `TGTACCAA` : PBM E-score at minimum 0.1? class 0

Evaluate `TAATCCAA` : PBM E-score at minimum 0.1? class 1

Evaluate `ATGATTTA` : PBM E-score at minimum 0.1? class 1

Evaluate `AGACTGAA` : PBM E-score at minimum 0.1? class 0

Evaluate `CAAGTGTG` : PBM E-score at minimum 0.1? class 0

Evaluate `AATTTCGA` : PBM E-score at minimum 0.1? class 0

Evaluate `AATCGAAA` : PBM E-score at minimum 0.1? class 0

Evaluate `TCTTCAAA` : PBM E-score at minimum 0.1? class 0

Evaluate `CATAAAGG` : PBM E-score at minimum 0.1? class 0

Evaluate `AGTGAGTG` : PBM E-score at minimum 0.1? class 0

Evaluate `GCATATGA` : PBM E-score at minimum 0.1? class 1

Evaluate `GAGAAGTA` : PBM E-score at minimum 0.1? class 0

Evaluate `CCATATGA` : PBM E-score at minimum 0.1? class 0

Evaluate `AATGAGAG` : PBM E-score at minimum 0.1? class 0

Evaluate `GATGAGTA` : PBM E-score at minimum 0.1? class 1

Evaluate `CATTTGAC` : PBM E-score at minimum 0.1? class 0

Evaluate `GAGGTCTA` : PBM E-score at minimum 0.1? class 0

Evaluate `TTATTAAA` : PBM E-score at minimum 0.1? class 1

Evaluate `AAGAATTG` : PBM E-score at minimum 0.1? class 1

Evaluate `AACATCTC` : PBM E-score at minimum 0.1? class 0

Evaluate `AATAGATC` : PBM E-score at minimum 0.1? class 0

Evaluate `AGCAAGAT` : PBM E-score at minimum 0.1? class 1

Evaluate `GTGATTTA` : PBM E-score at minimum 0.1? class 1

Evaluate `AAAAAACA` : PBM E-score at minimum 0.1? class 1

Evaluate `CAATATGA` : PBM E-score at minimum 0.1? class 1

Evaluate `CAGACAAC` : PBM E-score at minimum 0.1? class 0

Evaluate `ACTTGCTA` : PBM E-score at minimum 0.1? class 0

Evaluate `CTGCCCTA` : PBM E-score at minimum 0.1? class 0

Evaluate `AGGGAGTC` : PBM E-score at minimum 0.1? class 0

Evaluate `CCAGTAAC` : PBM E-score at minimum 0.1? class 0

Evaluate `TAAAAACA` : PBM E-score at minimum 0.1? class 1

Evaluate `AAGTACGG` : PBM E-score at minimum 0.1? class 0

Evaluate `GAATATGA` : PBM E-score at minimum 0.1? class 1

Evaluate `ATATGCGG` : PBM E-score at minimum 0.1? class 0

Evaluate `TCCTAAAA` : PBM E-score at minimum 0.1? class 0

Evaluate `GTCCTAAC` : PBM E-score at minimum 0.1? class 0

Evaluate `TAACGGAA` : PBM E-score at minimum 0.1? class 1

Evaluate `GATCTTGA` : PBM E-score at minimum 0.1? class 0

Evaluate `CTGATTTA` : PBM E-score at minimum 0.1? class 1

Evaluate `AAGACAAG` : PBM E-score at minimum 0.1? class 0

Evaluate `GATTTCGA` : PBM E-score at minimum 0.1? class 1

Evaluate `ATACCATA` : PBM E-score at minimum 0.1? class 1

Evaluate `CCGATTTA` : PBM E-score at minimum 0.1? class 1

Evaluate `GACAGGTC` : PBM E-score at minimum 0.1? class 0

Evaluate `ACCTGGTC` : PBM E-score at minimum 0.1? class 0

Evaluate `AAGGCTTA` : PBM E-score at minimum 0.1? class 0

Evaluate `CCTTTGGA` : PBM E-score at minimum 0.1? class 0

Evaluate `GATCGACA` : PBM E-score at minimum 0.1? class 0

Evaluate `AGACCATA` : PBM E-score at minimum 0.1? class 1

Evaluate `AATGAGAC` : PBM E-score at minimum 0.1? class 0

Evaluate `AGTACCAA` : PBM E-score at minimum 0.1? class 1

Evaluate `ACAAAACG` : PBM E-score at minimum 0.1? class 1

Evaluate `CTCCCATC` : PBM E-score at minimum 0.1? class 0

Evaluate `TATTTCGA` : PBM E-score at minimum 0.1? class 1

Evaluate `CAACGATA` : PBM E-score at minimum 0.1? class 0

Evaluate `TAACGATA` : PBM E-score at minimum 0.1? class 1

Evaluate `ACGAACTC` : PBM E-score at minimum 0.1? class 0

Evaluate `AAGACAAC` : PBM E-score at minimum 0.1? class 1

Evaluate `AGCCAACG` : PBM E-score at minimum 0.1? class 0

Evaluate `TAATATGA` : PBM E-score at minimum 0.1? class 1

Evaluate `AATCGAAC` : PBM E-score at minimum 0.1? class 1

Evaluate `GACATTCC` : PBM E-score at minimum 0.1? class 0

Evaluate `AATCGAAG` : PBM E-score at minimum 0.1? class 1

Evaluate `CGTACCAA` : PBM E-score at minimum 0.1? class 1

Evaluate `CATAGTTA` : PBM E-score at minimum 0.1? class 0

Evaluate `ACAAAACA` : PBM E-score at minimum 0.1? class 1

Evaluate `GCGATTTA` : PBM E-score at minimum 0.1? class 0

Evaluate `GCATTAAA` : PBM E-score at minimum 0.1? class 1

Evaluate `AGTTACAC` : PBM E-score at minimum 0.1? class 0

Evaluate `CGAGCTGA` : PBM E-score at minimum 0.1? class 0

Evaluate `ATGCGAAA` : PBM E-score at minimum 0.1? class 1

Evaluate `CCTGGGTA` : PBM E-score at minimum 0.1? class 0

Evaluate `AAGGCCCC` : PBM E-score at minimum 0.1? class 0

Evaluate `GTCATCCA` : PBM E-score at minimum 0.1? class 0

Evaluate `CTGCTCCA` : PBM E-score at minimum 0.1? class 0

Evaluate `AGTGAGTA` : PBM E-score at minimum 0.1? class 1
